Measured values drawn from ChEMBL document CHEMBL1145506 for this set.

PROCEDURE SUMMARY: Inhibition of Bacillus anthracis sortase C
pIC50: −log10 of the molar value.
PROPERTY MEASURED: pIC50

>>> value_measured("CN(C)CCC(=O)c1cccs1")
4.82
>>> value_measured("CN(C)CCC(=O)c1ccc(Cl)c(Cl)c1")
4.70

====

PROCEDURE SUMMARY: Inhibition of Bacillus anthracis sortase B
PROPERTY MEASURED: IC50

>>> value_measured("CN(C)CCC(=O)c1ccc(Cl)c(Cl)c1")
"14 µM"
>>> value_measured("CN(C)CCC(=O)c1cccs1")
"34 µM"

====

STUDY TARGET: Sortase A (Staphylococcus aureus, UniProt Q9S446)
Sequence (Q9S446 whole entry): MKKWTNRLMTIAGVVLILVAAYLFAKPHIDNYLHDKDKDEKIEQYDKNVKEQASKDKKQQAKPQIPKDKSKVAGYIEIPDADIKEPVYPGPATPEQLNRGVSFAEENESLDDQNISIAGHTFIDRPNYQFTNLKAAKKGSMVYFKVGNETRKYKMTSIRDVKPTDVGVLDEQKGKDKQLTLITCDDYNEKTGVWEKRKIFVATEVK
PROPERTY MEASURED: Ki (µM)

>>> value_measured("C=CC(=O)c1cccs1")
69
>>> value_measured("CN(C)CCC(=O)c1ccc(Cl)c(Cl)c1")
15.7
>>> value_measured("CN(C)CCC(=O)c1cccs1")
93.2

====

STUDY TARGET: Sortase A (Staphylococcus aureus)
Sequence (whole entry): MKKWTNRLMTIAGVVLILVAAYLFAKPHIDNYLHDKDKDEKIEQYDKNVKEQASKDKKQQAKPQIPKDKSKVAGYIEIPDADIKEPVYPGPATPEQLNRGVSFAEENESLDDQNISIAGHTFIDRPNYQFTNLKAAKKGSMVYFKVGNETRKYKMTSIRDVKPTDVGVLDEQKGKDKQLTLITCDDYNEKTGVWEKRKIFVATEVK
PROCEDURE SUMMARY: Inhibition of Staphylococcus aureus sortase A at 10 ng
Each item that follows carries a reported inhibition.
PROPERTY MEASURED: inhibition (%)

>>> value_measured("O=C(CCN1CCOCC1)c1ccc(F)cc1")
47.2
>>> value_measured("CCOC(=O)N1CCN(CCC(=O)c2ccc(Br)cc2)CC1")
80.2
>>> value_measured("CC1CCCN(CCC(=O)c2ccc(Br)cc2)C1 (stereo not given)")
56.9
>>> value_measured("CN(C)CCC(=O)c1ccc(Cl)c(Cl)c1")
89.6
>>> value_measured("CN(C)CCC(=O)c1cccc([N+](=O)[O-])c1")
54.3
>>> value_measured("CN(C)CCC(=O)c1cccs1")
54.8
>>> value_measured("CN(C)CCC(=O)c1ccc(S(C)(=O)=O)cc1")
69.8
>>> value_measured("O=C(CCN1CCOCC1)c1ccc(Cl)cc1")
84.4
>>> value_measured("Cc1ccc(C(=O)CCN2CCOCC2)cc1")
56.9
>>> value_measured("O=C(CCNc1ccccc1)c1cccc([N+](=O)[O-])c1")
66

====

STUDY TARGET: Papain (Carica papaya)
PROCEDURE SUMMARY: Inhibition of Carica papaya papain
Set-up: concentration or dose not given beside the values
PROTOCOL CONDITIONS: concentration not given here
Each item that follows carries a reported inhibition.
PROPERTY MEASURED: inhibition (%)

>>> value_measured("Cc1ccc(C(=O)CCN2CCOCC2)cc1")
31.2
>>> value_measured("CN(C)CCC(=O)c1ccc(S(C)(=O)=O)cc1")
37.1
>>> value_measured("CN(C)CCC(=O)c1cccs1")
19.1
>>> value_measured("CN(C)CCC(=O)c1ccc(Cl)c(Cl)c1")
49.3
>>> value_measured("O=C(CCN1CCOCC1)c1ccc(Cl)cc1")
50.4
>>> value_measured("O=C(CCN1CCOCC1)c1ccc(F)cc1")
46.6
>>> value_measured("CC1CCCN(CCC(=O)c2ccc(Br)cc2)C1 (stereo not given)")
33.8
>>> value_measured("O=C(CCNc1ccccc1)c1cccc([N+](=O)[O-])c1")
34
>>> value_measured("CCOC(=O)N1CCN(CCC(=O)c2ccc(Br)cc2)CC1")
48.5
>>> value_measured("CN(C)CCC(=O)c1cccc([N+](=O)[O-])c1")
47.2
